Please go through the items and note down their apparent Kd (screen).
# system-under-test: T1, TNFR1 (Homo sapiens, UniProt P19438)
# T1 chain: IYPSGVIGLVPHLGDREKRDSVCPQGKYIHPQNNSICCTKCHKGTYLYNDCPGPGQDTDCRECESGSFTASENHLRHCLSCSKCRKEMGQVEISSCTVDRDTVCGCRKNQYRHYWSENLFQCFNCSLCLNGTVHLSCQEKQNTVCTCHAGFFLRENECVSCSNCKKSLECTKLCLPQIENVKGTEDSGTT
# experiment-notes: yeast display SC50
Please state the figure in pM; there is no need to write the unit.

Problem: Item under review: A98S (designed binder) MTLQELLREEALRRAEAEAFRYALELLAEKFPEQKEYLLDLAEEIESQIRSLSGVDVEDVRKFLDKEWAWVKELLAEHPAELAEVEAARAARLAELRSEVEAKVAA . Reported apparent Kd (screen)?
Result: 653

Problem: Check A94D (designed binder) MTLQELLREEALRRAEAEAFRYALELLAEKFPEQKEYLLDLAEEIESQIRSLSGVDVEDVRKFLDKEWAWVKELLAEHPAELAEVEAARAARLDELRAEVEAKVAA too.
Result: 593

Problem: Check A28T (designed binder) MTLQELLREEALRRAEAEAFRYALELLTEKFPEQKEYLLDLAEEIESQIRSLSGVDVEDVRKFLDKEWAWVKELLAEHPAELAEVEAARAARLAELRAEVEAKVAA too.
Result: 1270

Problem: Check V60S (designed binder) MTLQELLREEALRRAEAEAFRYALELLAEKFPEQKEYLLDLAEEIESQIRSLSGVDVEDSRKFLDKEWAWVKELLAEHPAELAEVEAARAARLAELRAEVEAKVAA too.
Result: 446

Problem: Check R21M (designed binder) MTLQELLREEALRRAEAEAFMYALELLAEKFPEQKEYLLDLAEEIESQIRSLSGVDVEDVRKFLDKEWAWVKELLAEHPAELAEVEAARAARLAELRAEVEAKVAA too.
Result: 956

Problem: Check Q48K (designed binder) MTLQELLREEALRRAEAEAFRYALELLAEKFPEQKEYLLDLAEEIESKIRSLSGVDVEDVRKFLDKEWAWVKELLAEHPAELAEVEAARAARLAELRAEVEAKVAA too.
Result: 7070

Problem: Check F20M (designed binder) MTLQELLREEALRRAEAEAMRYALELLAEKFPEQKEYLLDLAEEIESQIRSLSGVDVEDVRKFLDKEWAWVKELLAEHPAELAEVEAARAARLAELRAEVEAKVAA too.
Result: 869

Problem: Check E43F (designed binder) MTLQELLREEALRRAEAEAFRYALELLAEKFPEQKEYLLDLAFEIESQIRSLSGVDVEDVRKFLDKEWAWVKELLAEHPAELAEVEAARAARLAELRAEVEAKVAA too.
Result: 653

Problem: Check M1M (designed binder) MTLQELLREEALRRAEAEAFRYALELLAEKFPEQKEYLLDLAEEIESQIRSLSGVDVEDVRKFLDKEWAWVKELLAEHPAELAEVEAARAARLAELRAEVEAKVAA too.
Result: 490

Problem: Check A94L (designed binder) MTLQELLREEALRRAEAEAFRYALELLAEKFPEQKEYLLDLAEEIESQIRSLSGVDVEDVRKFLDKEWAWVKELLAEHPAELAEVEAARAARLLELRAEVEAKVAA too.
Result: 956
